Test system: HCI-002 (organoid from a triple-negative breast cancer xenograft)
protocol: CTG-3D luminescence at 96 h relative to day-0 seeding control (ratio to day 0); higher = more growth / less cytotoxicity; PDxO 3D drug screen, 96 h, CTG-3D normalised to day-0 seeding control.
test_settings: 1 µM; days in culture: 91
parameter: CTG-3D luminescence at 96 h
// print number alone

In the examples that follow, each entry is paired with its recorded CTG-3D luminescence at 96 h.
CNC(=O)c1cccc(-c2ccc3c(N4CCOC[C@@H]4C)nc(N4CCOC[C@@H]4C)nc3n2)c1 1.19
CC(=O)O[C@H]1C(=O)[C@@]2(C)[C@H]([C@H](OC(=O)c3ccccc3)[C@]3(O)C[C@H](OC(=O)[C@H](O)[C@@H](NC(=O)c4ccccc4)c4ccccc4)C(C)=C1C3(C)C)[C@]1(OC(C)=O)CO[C@@H]1C[C@@H]2O 0.19
COc1cc2c(Oc3ccc4[nH]c(C)cc4c3F)ncnc2cc1OCCCN1CCCC1 3.86
C[C@H](NC(=O)CCC(F)(F)F)C(=O)N[C@@H]1C(=O)N(CCO)c2ncccc2-c2ccccc21 3.36
COc1cccc2c1C(=O)c1c(O)c3c(c(O)c1C2=O)C[C@@](O)(C(=O)CO)C[C@@H]3O[C@H]1C[C@H](N)[C@H](O)[C@H](C)O1 1.03

Read the next record carefully.
Record for "CC(C)n1nc(-c2ccc3oc(N)nc3c2)c2c(N)ncnc21" under target or system HCI-002: CTG-3D luminescence at 96 h reported as 0.846

* * *

In this section we review reported CTG-3D luminescence at 96 h values for a set of molecules.
Tested on: HCI-010 (organoid from a breast cancer xenograft)
protocol: CTG-3D luminescence at 96 h relative to day-0 seeding control (ratio to day 0); higher = more growth / less cytotoxicity; PDxO 3D drug screen, 96 h, CTG-3D normalised to day-0 seeding control.
test_settings: 0.1 µM; days in culture: 65
// print number alone

The molecule O=C(c1ccc(F)c(F)c1Nc1ccc(I)cc1F)N1CC(O)([C@@H]2CCCCN2)C1 [cobimetinib] showed CTG-3D luminescence at 96 h equal to 1.67

The molecule NC(=O)Nc1cc(-c2cccc(F)c2)sc1C(=O)N[C@H]1CCCNC1 [AZD7762] showed CTG-3D luminescence at 96 h equal to 0.742

The molecule CCc1c2c(nc3ccc(O)cc13)-c1cc3c(c(=O)n1C2)COC(=O)[C@]3(O)CC [SN-38] showed CTG-3D luminescence at 96 h equal to 0.115

The molecule "CCN(c1cc(C#CCN2CCOCC2)cc(C(=O)NCc2c(C)cc(C)[nH]c2=O)c1C)[C@H]1CC[C@H](N(C)CCOC)CC1" showed CTG-3D luminescence at 96 h equal to 1.49

The molecule C/C=C1\NC(=O)[C@H]2CSSCC/C=C/[C@H](CC(=O)N[C@H](C(C)C)C(=O)N2)OC(=O)[C@H](C(C)C)NC1=O [romidepsin] showed CTG-3D luminescence at 96 h equal to 0.326

The molecule COc1cc2c(Oc3ccc4[nH]c(C)cc4c3F)ncnc2cc1OCCCN1CCCC1 [cediranib] showed CTG-3D luminescence at 96 h equal to 1.77

The molecule Nc1ccn([C@@H]2O[C@H](CO)[C@@H](O)C2(F)F)c(=O)n1 [gemcitabine] showed CTG-3D luminescence at 96 h equal to 0.23

The measurements presented in this section are drawn from the supplement of paper PMC8882468.
